% ttPeak, Ab 10 nM: recorded values
Target: Relipidated TF (Tissue Factor) (UniProt P13726 33-295, limits assumed)
Assay: cell-based or functional assay
Observation type: % ttPeak, Ab 10 nM

Binder	Observation type	Reported value
25A (antibody, human IgG1, V domains shown) VH: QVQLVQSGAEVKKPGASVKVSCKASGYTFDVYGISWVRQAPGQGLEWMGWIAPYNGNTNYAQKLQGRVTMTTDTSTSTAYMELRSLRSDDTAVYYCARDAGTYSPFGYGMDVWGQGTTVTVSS VL: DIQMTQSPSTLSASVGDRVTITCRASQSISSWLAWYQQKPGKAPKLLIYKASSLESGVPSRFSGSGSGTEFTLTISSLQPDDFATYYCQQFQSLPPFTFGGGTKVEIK	% ttPeak, Ab 10 nM	4%
39A (antibody, human IgG1, V domains shown) VH: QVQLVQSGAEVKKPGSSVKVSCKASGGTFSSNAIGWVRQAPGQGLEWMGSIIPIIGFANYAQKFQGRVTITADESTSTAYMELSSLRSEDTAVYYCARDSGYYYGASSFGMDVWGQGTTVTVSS VL: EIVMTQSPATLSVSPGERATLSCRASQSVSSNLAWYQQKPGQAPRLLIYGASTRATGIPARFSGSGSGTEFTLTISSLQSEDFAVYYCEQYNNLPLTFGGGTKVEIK	% ttPeak, Ab 10 nM	135%
5G9 (humanized TF8-5G9, CNTO 860) (antibody, V domains shown) VH: QVQLVESGGGVVQPGRSLRLSCKASGFNIKDYYMHWVRQAPGKGLEWIGLIDPENGNTIYDPKFQGRFTISADNSKNTLFLQMDSLRPEDTAVYYCARDNSYYFDYWGQGTPVTVSS VL: DIQMTQSPSSLSASVGDRVTITCKASQDIRKYLNWYQQKPGKAPKLLIYYATSLADGVPSRFSGSGSGTDYTFTISSLQPEDIATYYCLQHGESPYTFGQGTKLEIT	% ttPeak, Ab 10 nM	135%
